- EXPERIMENTAL_TARGET: T1, human FOLR1 recombinant protein (extracellular domain of human folate receptor alpha) (human, UniProt P15328 25-233)
- T1 construct: Bought recombinant protein (Sino Biological); also called hFOLR1; FR-alpha
- T1 sequence (P15328 25-233): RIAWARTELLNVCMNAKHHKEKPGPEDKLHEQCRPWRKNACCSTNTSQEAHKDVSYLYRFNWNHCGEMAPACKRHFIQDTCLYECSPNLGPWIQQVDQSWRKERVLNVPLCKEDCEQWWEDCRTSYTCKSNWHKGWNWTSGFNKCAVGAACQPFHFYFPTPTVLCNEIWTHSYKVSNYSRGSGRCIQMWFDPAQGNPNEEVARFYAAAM
- PROTOCOL_DESCRIPTION: SPR (Biacore T200), human FOLR1 immobilized on CM5, His6-tagged VHH as analyte, 1:1 fit
- Experimental: The kinetic parameters of antigen binding by purified VHHs were determined via surface plasmon resonance with a Biacore T200 instrument (GE Healthcare). […] His₆-tagged VHHs were analyzed in a twofold serial dilution in HBS (125 nM-0.488 nM for VHHs A4 and A5; 10 nM-0.039 nM for VHHs A1, A2 and A3) with an analyte flow rate of 30 µl/min. […]
METRIC: koff (s⁻¹)
Please reply with the bare figure in s⁻¹ and do not write the unit itself.

IN: Form field: reported koff of His6-tagged variant of VHH A4 (VHH, Purified, unlabelled; also called A4 His6-tag) VHH: DVQLVESGGGLARAGGSLRLSCAASGRAFSSTYAMGWFRQAPGKEREFVADINWSEGSPMYIDSVKDRFTISRDNARNSLYLQMNSLKSEDTAVYYCAARRFGQGYEYWGQGTQVTVSS
OUT: 0.0057

IN: Form field: reported koff of His6-tagged variant of VHH A1 (VHH, Purified, unlabelled; also called A1 His6-tag) VHH: DVQLVESGGGLVQPGGSLRLSCAASESIFSRNHMSWYRQAPGKQRELAAIITSDGNTNYPDSVKGRFTISRDNAKNTVYLQMNSLKPEDTAVYYCNTFGRSVAGFYDYWGQGTQVTVSS
OUT: 0.00014
